molecular target: acetylcholine receptor; test: SPR, AchR immobilized on CM5 chip, peptide 10 uM
Please mark 1 if the recorded Binding affinity (RU) is equal to or greater than 100 RU, and 0 if it falls below.

Worked cases, answers included:
RKVFYR [6mer-1-355]	1
KKYPWR [6mer-1-775]	0
RKFEWK [6mer-1-768]	0
KRRISK [6mer-1-379]	1
RKGFSK [6mer-1-367]	1

From here, focus on the item given below.
Exercise: Record KRQFLR [6mer-1-359] ; criterion: Binding affinity (RU) no lower than 100 RU. Met?
Key: 1
